B1: FAM189A2 (parent)
chain: CALNALTTTVCLVAAALRYLQIFA

# Variants of: B1
# Test method notes: protein stability index of a GFP-peptide fusion (GPS, HEK-293T) (PSI 1-6); higher = more stable;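 further: lentivirally expressed fusions sorted by FACS into six bins by GFP to DsRed ratio, PSI derived from sequencing read proportions per bin multiplied by bin number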
# Condition: c terminus: a fixed tail appended
What protein stability index was measured for each of the following?

[[record]]
mutant_designation = "N4G"
value_type = "protein stability index"
result = 2.34

[[record]]
mutant_designation = "A15D"
value_type = "protein stability index"
result = 3.14

[[record]]
mutant_designation = "L17P"
value_type = "protein stability index"
result = 2.91

[[record]]
mutant_designation = "A14S"
value_type = "protein stability index"
result = 4.79

[[record]]
mutant_designation = "A5I"
value_type = "protein stability index"
result = 3.46

[[record]]
mutant_designation = "A5E"
value_type = "protein stability index"
result = 3.02

[[record]]
mutant_designation = "L17E"
value_type = "protein stability index"
result = 3.03

[[record]]
mutant_designation = "L6C"
value_type = "protein stability index"
result = 2.11

[[record]]
mutant_designation = "C1V"
value_type = "protein stability index"
result = 1.85

[[record]]
mutant_designation = "T8A"
value_type = "protein stability index"
result = 3.34


// each variant listed below needs its protein stability index
1. L20N
2. A24T

1: 2.53; 2: 3.23
